# System: LOU-NH91
# test description: relative viability (nuclei count vs DMSO), 5 days (fraction); higher = more cells survive
# assay conditions: first compound 0.1581 µM
parameter: relative viability
Give the figure only, with no unit attached.

{"molecule": "COc1cc2nccc(Oc3ccc(NC(=O)Nc4cc(C)on4)c(Cl)c3)c2cc1OC [Tivozanib] + Cc1cc(Nc2cc(N3CCN(C)CC3)nc(Sc3ccc(NC(=O)C4CC4)cc3)n2)n[nH]1 [Tozasertib] (partner 0.1 µM)", "relative viability": 0.759}
{"molecule": "Nc1ccn([C@@H]2O[C@H](CO)[C@@H](O)[C@@H]2O)c(=O)n1 [Cytarabine] + CC(C)C[C@H](NC(=O)[C@H](Cc1ccccc1)NC(=O)c1cnccn1)B(O)O [Bortezomib] (partner 0.002 µM)", "relative viability": 0.338}

Input line: Could you share which relative viability value was measured for COc1cc2nccc(Oc3ccc(NC(=O)Nc4cc(C)on4)c(Cl)c3)c2cc1OC [Tivozanib] + Cc1nc(Nc2ncc(C(=O)Nc3c(C)cccc3Cl)s2)cc(N2CCN(CCO)CC2)n1 [Dasatinib] (partner 0.075 µM) ?
Output line: 0.518

Input line: Can you look up the measured relative viability of COc1cc2nccc(Oc3ccc(NC(=O)Nc4cc(C)on4)c(Cl)c3)c2cc1OC [Tivozanib] + CS(=O)(=O)CCNCc1ccc(-c2ccc3ncnc(Nc4ccc(OCc5cccc(F)c5)c(Cl)c4)c3c2)o1 [Lapatinib] (partner 2 µM) for me?
Output line: 0.62

Input line: Quick check: relative viability of COc1cc2nccc(Oc3ccc(NC(=O)Nc4cc(C)on4)c(Cl)c3)c2cc1OC [Tivozanib] + Nc1nc2[nH]cc(CCc3ccc(C(=O)N[C@@H](CCC(=O)O)C(=O)O)cc3)c2c(=O)[nH]1 [Pemetrexed] (partner 0.2 µM) ?
Output line: 0.525

Input line: For the molecule Nc1ccn([C@@H]2O[C@H](CO)[C@@H](O)[C@@H]2O)c(=O)n1 [Cytarabine] + Nc1nc2[nH]cc(CCc3ccc(C(=O)N[C@@H](CCC(=O)O)C(=O)O)cc3)c2c(=O)[nH]1 [Pemetrexed] (partner 0.2 µM) , what relative viability is on record?
Output line: 0.318

Input line: What does the record list as relative viability for Nc1ccn([C@@H]2O[C@H](CO)[C@@H](O)[C@@H]2O)c(=O)n1 [Cytarabine] + CC1(C)CCC(c2ccc(Cl)cc2)=C(CN2CCN(c3ccc(C(=O)NS(=O)(=O)c4ccc(N[C@H](CCN5CCOCC5)CSc5ccccc5)c(S(=O)(=O)C(F)(F)F)c4)cc3)CC2)C1 [Navitoclax] (partner 0.5 µM) ?
Output line: 0.332

Input line: Find the recorded relative viability belonging to Nc1ccn([C@@H]2O[C@H](CO)[C@@H](O)[C@@H]2O)c(=O)n1 [Cytarabine] + C[C@@H](Oc1cc(-c2cnn(C3CCNCC3)c2)cnc1N)c1c(Cl)ccc(F)c1Cl [Crizotinib] (partner 1 µM) and report it.
Output line: 0.511
